tested.system: UniProt:P37231
Sequence (P37231 238-503 limits assumed): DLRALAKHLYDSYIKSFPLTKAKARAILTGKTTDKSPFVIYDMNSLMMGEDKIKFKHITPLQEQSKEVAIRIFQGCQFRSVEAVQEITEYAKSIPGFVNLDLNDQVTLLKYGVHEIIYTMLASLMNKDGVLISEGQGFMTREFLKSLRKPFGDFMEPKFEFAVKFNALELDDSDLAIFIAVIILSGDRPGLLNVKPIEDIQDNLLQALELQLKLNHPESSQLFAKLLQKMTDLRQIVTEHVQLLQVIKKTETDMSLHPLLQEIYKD
assay.details: PPARγ transfection luciferase reporter assay in HepG2 cells
measurement.conditions: HepG2, 24 hours exposure
Could you please report measured pEC50 for the items listed next?
Give bare numbers, as −log10 of the molar value.

As a guide, the following entries are already answered.
CCc1nc2c(C)cc([C@@H](OC)C(C)C)nc2n1[C@H]1CCc2cc(-c3ccccc3-c3nnn[nH]3)ccc21    6.34
C=CCc1cc(C)c2nc(CC)n([C@H]3CCc4cc(-c5ccccc5-c5nnn[nH]5)ccc43)c2n1    7.22
CCc1nc2c(C)cc(CC(O)C(C)C)nc2n1[C@H]1CCc2cc(-c3ccccc3-c3nnn[nH]3)ccc21 (some centres unmarked)    7.00
CCc1nc2c(C)cc(CCC3(O)CCCC3)nc2n1[C@H]1CCc2cc(-c3ccccc3-c3nnn[nH]3)ccc21    6.81
CCc1nc2c(C)cc(CCc3cccc(OC)c3)nc2n1[C@H]1CCc2cc(-c3ccccc3-c3nnn[nH]3)ccc21    6.71

Batch request: pEC50 for each of the following molecules.
1. CCCc1nc2c(C)cc(CC[C@@H](C)O)nc2n1[C@H]1CCc2cc(-c3ccccc3-c3nnn[nH]3)ccc21
2. CCc1nc2c(C)cc(CC[C@@H](C)O)nc2n1[C@H]1CCc2cc(-c3ccccc3-c3nnn[nH]3)ccc21 (single isomer, unassigned)
3. CCc1nc2c(C)cc([C@H](O)C(C)C)nc2n1[C@H]1CCc2cc(-c3ccccc3-c3nnn[nH]3)ccc21
4. CCc1nc2c(C)cc(C(C)(O)C(C)C)nc2n1[C@H]1CCc2cc(-c3ccccc3-c3nnn[nH]3)ccc21 (some centres unmarked)
5. CCc1nc2c(C)cc([C@@H](O)C(C)C)nc2n1[C@H]1CCc2cc(-c3ccccc3-c3nnn[nH]3)ccc21
6. CCc1nnc(Cc2cc(C)c3nc(CC)n([C@H]4CCc5cc(-c6ccccc6-c6nnn[nH]6)ccc54)c3n2)o1

**A:**
[6.11, 6.57, 6.36, 6.39, 6.84, 7.15]

Origin of the recorded values: patent US20100029710A1
